// % Act-Ave @ 1 nM lookup, one value per entry
# studyTarget: CCK-B receptors (CHO-CCK) (Homo sapiens)
# Construct: expressed in transfected cells; host or cells: CHO (CHO-CCK model cells)
# Sequence (P32239 whole entry): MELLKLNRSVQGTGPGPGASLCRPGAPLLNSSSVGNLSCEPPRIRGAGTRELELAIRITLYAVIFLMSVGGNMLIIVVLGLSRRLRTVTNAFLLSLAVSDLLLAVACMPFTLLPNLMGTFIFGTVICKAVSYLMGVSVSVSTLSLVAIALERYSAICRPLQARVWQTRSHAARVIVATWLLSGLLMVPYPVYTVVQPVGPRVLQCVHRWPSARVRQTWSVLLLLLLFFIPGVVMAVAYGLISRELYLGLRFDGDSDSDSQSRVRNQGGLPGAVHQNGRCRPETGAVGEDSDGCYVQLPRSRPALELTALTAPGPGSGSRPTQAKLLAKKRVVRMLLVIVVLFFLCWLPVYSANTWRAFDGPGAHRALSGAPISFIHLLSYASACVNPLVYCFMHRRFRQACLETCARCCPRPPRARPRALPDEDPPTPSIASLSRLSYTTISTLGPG
# assayDetails: Calcium flux (Fluo-8) agonist test on CHO-CCK model cells
# Assay type: cell-based
# conditionSet: compound at 1 nM, CHO-CCK cells
*1 amine or outer side, *2 acyl side, *3 side chain or, on linkers, in order; H or OH if unused. Where a SMILES comes first, the peptide text is derived from it. [ ]: non-standard residue; d: D form. X1 = O=C([C@@]1(O)C[C@@H](O)[C@H](N[*:1])C([C@@H](O)[C@@H](O)CO)O1)[*:2]; NMeW = CN[C@@H](Cc1c[nH]c2ccccc12)C(=O)O; Phe(3-Br) = N[C@@H](Cc1cccc(Br)c1)C(=O)O; Aad = N[C@@H](CCCC(=O)O)C(=O)O; Nle = CCCC[C@H](N)C(=O)O
State just the number; it will be interpreted in %.

Some solved entries appear below for comparison.
>>> reading("CCCC[C@H](NC(=O)[C@H](Cc1c[nH]c2ccccc12)N(C)C(=O)[C@@H](N)CCC(=O)O)C(=O)N[C@@H](CCCC(=O)O)C(=O)N[C@@H](Cc1cccc(Br)c1)C(N)=O [HT-277, Glu-(N-Me-Trp)-Nle-Aa-Phe(3-Br)-NH2] (H-E[NMeW][Nle][Aad][Phe(3-Br)]-NH2)")
"−0.13"
>>> reading("CCCC[C@H](NC(=O)[C@H](Cc1c[nH]c2ccccc12)N(C)C(=O)[C@@]1(O)C[C@@H](O)[C@H](NC(C)=O)C([C@@H](O)[C@@H](O)CO)O1)C(=O)N[C@@H](CCCC(=O)O)C(=O)N[C@@H](Cc1cccc(Br)c1)C(N)=O (stereo partly shown) [HT-275, Trp)-Nle-Aa-Phe(3-Br)-NH2] (Ac-[X1][NMeW][Nle][Aad][Phe(3-Br)]-NH2)")
62.28

q: Endpoint output: % Act-Ave @ 1 nM of CSCC[C@H](NC(C)=O)C(=O)N[C@@H](CC(=O)O)C(=O)N[C@@H](Cc1ccccc1)C(N)=O [HT-280, Ac-Met-Asp-Phe-NH2] (Ac-Met-Asp-Phe-NH2) . Value?
a: −0.33

q: Endpoint output: % Act-Ave @ 1 nM of CCCC[C@H](NC(=O)[C@H](Cc1c[nH]c2ccccc12)N(C)C(=O)[C@@]1(O)C[C@@H](O)[C@H](NC(C)=O)C([C@@H](O)[C@@H](O)CO)O1)C(=O)N[C@@H](CC(=O)O)C(=O)N[C@@H](Cc1cccc(Br)c1)C(N)=O (stereo partly drawn) [HT-278, Sia-(N-Me-Trp)-Nle-Asp-Phe(3-Br)-NH2] (Ac-[X1][NMeW][Nle]D[Phe(3-Br)]-NH2) . Value?
a: 40.85
